- tested system: human prostaglandin I2 (IP) receptor (Homo sapiens, UniProt P43119)
- Construct: A DNA molecule encoding the full length IP protein has been isolated and purified
- Sequence (P43119 whole entry): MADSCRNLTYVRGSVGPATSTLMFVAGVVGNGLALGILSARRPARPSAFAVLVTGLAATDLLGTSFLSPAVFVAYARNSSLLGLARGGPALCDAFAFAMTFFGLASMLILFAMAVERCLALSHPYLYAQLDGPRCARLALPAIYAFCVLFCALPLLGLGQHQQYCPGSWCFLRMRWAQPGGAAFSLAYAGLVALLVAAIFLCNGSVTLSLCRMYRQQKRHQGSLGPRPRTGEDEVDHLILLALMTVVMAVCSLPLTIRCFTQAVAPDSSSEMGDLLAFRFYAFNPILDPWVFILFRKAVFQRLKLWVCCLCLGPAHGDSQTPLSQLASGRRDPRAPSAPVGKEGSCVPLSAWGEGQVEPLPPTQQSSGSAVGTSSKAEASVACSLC
- assay info: [3H]iloprost competition binding to membranes of pcDNAIamp-hIP transfected COS-M6 cells
- assay setup: read-out: IC50, competition for [3H]iloprost specific binding; 4 nM [3H]iloprost, COS-M6 membranes, pH 6.0, 45 min at 30° C.
pIC50: −log10 of the molar value.
measurement type: pIC50

* CCCCC[C@H](O)/C=C/[C@@H]1[C@@H](C/C=C\CCCC(=O)O)[C@@H](O)C[C@H]1O [PGF2α] | ~5.00

Query: Look up and state reported pIC50 for CCCCC[C@H](O)/C=C/[C@H]1[C@H](O)CC(=O)[C@@H]1C/C=C\CCCC(=O)O [PGE2]
Reply: ~5.00
